Cited source: patent US11905244B2

Molecular target: CRAC channel (Homo sapiens (Human))
Sequence (Q96D31 whole entry): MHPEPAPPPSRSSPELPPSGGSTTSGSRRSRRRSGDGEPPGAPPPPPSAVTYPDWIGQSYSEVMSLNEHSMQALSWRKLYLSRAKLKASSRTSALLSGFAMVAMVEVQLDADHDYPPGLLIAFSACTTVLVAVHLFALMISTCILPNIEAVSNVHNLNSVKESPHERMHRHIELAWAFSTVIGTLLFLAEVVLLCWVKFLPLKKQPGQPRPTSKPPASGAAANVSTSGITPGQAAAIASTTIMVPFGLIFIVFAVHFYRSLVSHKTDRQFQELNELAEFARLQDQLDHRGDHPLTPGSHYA
Test: GFP-NFAT translocation-based high-content screening (TG-stimulated HeLa cells stably expressing GFP-NFAT)
Assay type: cell-based
Details: Table 2; unit inferred; read-out: IC50 of the compounds (inhibitory activity on CRAC channel)
pIC50: −log10 of the molar value.
readout: pIC50

Consider CCOC(=O)c1ccc(N2C(=O)CC(S/C(=N/c3ccc(OC)cc3)NCCc3ccc(S(N)(=O)=O)cc3)C2=O)cc1 (stereo not drawn) . Its measured pIC50 is < 3.70

Consider CCCCN/C(=N\c1ccccc1)SC1CC(=O)N(c2ccc(C(=O)OC)cc2)C1=O (stereo not drawn) . Its measured pIC50 is < 3.70

Consider COc1ccc(N2C(=O)CC(S/C(=N/c3cc(OC)ccc3OC)NCCc3ccc(S(N)(=O)=O)cc3)C2=O)cc1 (stereo not drawn) . Its measured pIC50 is < 3.70
